Measured Phage binding ELISA signal, Anti-PSMA Fab of individual entries
TARGET_DESC: T1, PSMA Fab (biotinylated (site not stated))
T1 construct: Biotinylated PSMA Fab captured on neutravidin coated plates in the phage ELISA; also called Anti-PSMA Fab; 006 PSMA Fab
TEST: phage ELISA; biotinylated PSMA Fab on neutravidin plate, clonal phage supernatant, anti-M13 HRP detection;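 note: wells preincubated with PSMA antigen in blocking buffer or with blocking buffer only before clonal phage were added for a short incubation, then bound phage detected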
// no unit, no text: just the number

>>> df
                        binder  numeric_readout
0  PFLACIPQWMCEVV [Phage-3843]             1.22
1  EPKECVPPWMCIGM [Phage-3850]             1.21

Prompt: Could you tell me which Phage binding ELISA signal, Anti-PSMA Fab is on file for SDMVCKPPWMCYGF [Phage-3844] ?
Response: 1.22

Prompt: Could you tell me which Phage binding ELISA signal, Anti-PSMA Fab is on file for DQRMCEPSWMCLGL [Phage-3852] ?
Response: 1.19

Prompt: Could you tell me which Phage binding ELISA signal, Anti-PSMA Fab is on file for WDIRCSPEWMCIGL [Phage-3849] ?
Response: 1.21

Prompt: Could you tell me which Phage binding ELISA signal, Anti-PSMA Fab is on file for NYVKCRPAWMCDGF [Phage-3855] ?
Response: 1.18

Prompt: Could you tell me which Phage binding ELISA signal, Anti-PSMA Fab is on file for YNQLCIPNWMCTGF [Phage-3846] ?
Response: 1.21

Prompt: Could you tell me which Phage binding ELISA signal, Anti-PSMA Fab is on file for VSKMCSPVWMCEGF [Phage-3854] ?
Response: 1.19
